Target: T1, monkey CD73 on CHOK1-cynoCD73 cells (monkey, UniProt A0A2K5V5U7 27-549, GPI anchor at the C-terminus of the mature chain (paragraph 3 says CD73 is GPI-anchored). The propeptide 550-574 is removed.)
T1 construct: also called CHOK1-cyno73 cells; monkey CD73 positive cells
T1 sequence: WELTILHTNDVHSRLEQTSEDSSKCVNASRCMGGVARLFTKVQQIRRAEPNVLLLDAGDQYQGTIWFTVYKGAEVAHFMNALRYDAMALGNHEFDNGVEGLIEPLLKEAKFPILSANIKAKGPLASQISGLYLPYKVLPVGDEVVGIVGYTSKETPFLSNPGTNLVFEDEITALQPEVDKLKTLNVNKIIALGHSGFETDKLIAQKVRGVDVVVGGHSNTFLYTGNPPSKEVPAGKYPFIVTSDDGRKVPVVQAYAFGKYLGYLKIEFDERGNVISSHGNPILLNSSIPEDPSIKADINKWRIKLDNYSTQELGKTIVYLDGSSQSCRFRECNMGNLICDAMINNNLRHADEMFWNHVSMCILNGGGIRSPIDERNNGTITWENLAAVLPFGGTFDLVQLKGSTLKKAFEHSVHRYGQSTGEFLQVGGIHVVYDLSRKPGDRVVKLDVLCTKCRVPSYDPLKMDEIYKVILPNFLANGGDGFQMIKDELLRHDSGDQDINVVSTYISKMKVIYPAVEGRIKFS
Assay: flow cytometry on CHOK1-cynoCD73 cells
Each record is given yes (1) if its reported EC50 is strictly below 0.02 µg/mL. Records at or above 0.02 µg/mL are given no (0).

Given humanized CQ137 monoclonal antibody (137-6) (antibody, V domains shown) VH: QVQLVQSGAEVKKPGSSVKVSCKASGYSFTGYYIHWVRQAPGQGLEWMGRINPYNGATTYNQNFKDRVTITVDKSTSTAYMELSSLRSEDTAVYYCARFHYGAPEYWGQGTLVTVSS VL: DIQMTQSPSSLSASVGDRVTITCKASQDINTYLTWYQQKPGKAPKTLIYRANILVDGVPSRFSGSGSGTDFTLTISSLQPEDFATYYCLQYAEFPLTFGGGTKVEIKR , is recorded EC50 strictly lower than 0.02 µg/mL?
yes (1)

EC50 strictly < 0.02 µg/mL for this binder? humanized CQ137 monoclonal antibody (137-5) (antibody, V domains shown) VH: QVQLVQSGAEVKKPGSSVKVSCKASGYSFTGYYIHWVRQAPGQGLEWMGRINPYNGATTYNQNFKDRVTITVDKSTSTAYMELSSLRSEDTAVYYCARFHYGAADYWGQGTLVTVSS VL: DIQMTQSPSSLSASVGDRVTITCKASQDINTYLTWYQQKPGKAPKTLIYRANILVDGVPSRFSGSGSGTDFTLTISSLQPEDFATYYCLQYNEFPLTFGGGTKVEIKR
yes (1)

Regarding humanized CQ137 monoclonal antibody (137-4) (antibody, V domains shown) VH: QVQLVQSGAEVKKPGSSVKVSCKASGYSFTGYYIHWVRQAPGQGLEWMGRINPYNGATTYNQNFKDRVTITVDKSTSTAYMELSSLRSEDTAVYYCARFHYGAVDYWGQGTLVTVSS VL: DIQMTQSPSSLSASVGDRVTITCKASQDINTYLTWYQQKPGKAPKTLIYRANILVDGVPSRFSGSGSGTDFTLTISSLQPEDFATYYCLQYEEFPLTFGGGTKVEIKR , kindly confirm whether its EC50 is beneath 0.02 µg/mL.
yes (1)

Quick check: EC50 of humanized CQ137 monoclonal antibody (137-8) (antibody, V domains shown) VH: QVQLVQSGAEVKKPGSSVKVSCKASGYSFTGYYIHWVRQAPGQGLEWMGRINPYNGATTYNQNFKDRVTITVDKSTSTAYMELSSLRSEDTAVYYCARFHYGAPDFWGQGTLVTVSS VL: DIQMTQSPSSLSASVGDRVTITCKASQDINTYLTWYQQKPGKAPKTLIYRANILVDGVPSRFSGSGSGTDFTLTISSLQPEDFATYYCLQYDQFPLTFGGGTKVEIKR under 0.02 µg/mL?
yes (1)

Please let me know if humanized CQ137 monoclonal antibody (137-9) (antibody, V domains shown) VH: QVQLVQSGAEVKKPGSSVKVSCKASGYSFTGYYIHWVRQAPGQGLEWMGRINPYNGATTYNQNFKDRVTITVDKSTSTAYMELSSLRSEDTAVYYCARFHYGAPDLWGQGTLVTVSS VL: DIQMTQSPSSLSASVGDRVTITCKASQDINTYLTWYQQKPGKAPKTLIYRANILVDGVPSRFSGSGSGTDFTLTISSLQPEDFATYYCLQYDAFPLTFGGGTKVEIKR shows EC50 below 0.02 µg/mL.
yes (1)

Input humanized CQ137 monoclonal antibody (137-7) (antibody, V domains shown) VH: QVQLVQSGAEVKKPGSSVKVSCKASGYSFTGYYIHWVRQAPGQGLEWMGRINPYNGATTYNQNFKDRVTITVDKSTSTAYMELSSLRSEDTAVYYCARFHYGAPNYWGQGTLVTVSS VL: DIQMTQSPSSLSASVGDRVTITCKASQDINTYLTWYQQKPGKAPKTLIYRANILVDGVPSRFSGSGSGTDFTLTISSLQPEDFATYYCLQYDDFPLTFGGGTKVEIKR ; condition: EC50 strictly below 0.02 µg/mL. Does it hold?
no (0)
